Could you please report measured MIC for the items listed next?
Your answer is read as µg/mL, so omit the unit and give the number.

Query MIC on Proteus mirabilis Hamburgensis for CCOC(=O)Oc1ccc([C@@H](NC(=O)Nc2cnc(Nc3ccc(S(N)(=O)=O)cc3)nc2O)C(=O)N[C@@H]2C(=O)N3[C@@H]2SC(C)(C)[C@@H]3C(=O)O)cc1
0.12

Which measured MIC belongs to CC1(C)S[C@@H]2[C@H](NC(=O)[C@H](NC(=O)N3CCNC3=O)c3ccccc3)C(=O)N2[C@H]1C(=O)O [Azlocillin, reference compound] , tested on Proteus mirabilis Hamburgensis?
2

# returns recorded MIC (system: Proteus mirabilis Hamburgensis) for CCOC(=O)Oc1ccc([C@@H](NC(=O)Nc2cnc(Nc3ccc(S(N)(=O)=O)cc3)nc2O)C(=O)N[C@@H]2C(=O)N3C(C(=O)O)=C(CSc4nnnn4C)CS[C@H]23)cc1
0.12

Lab note: need MIC with Proteus mirabilis Hamburgensis for entry CC(=O)Oc1ccc([C@@H](NC(=O)Nc2cnc(Nc3ccc(S(N)(=O)=O)cc3)nc2O)C(=O)N[C@@H]2C(=O)N3C(C(=O)O)=C(CSc4nnnn4C)CS[C@H]23)cc1 , please look it up.
0.25

Look up MIC with Proteus mirabilis Hamburgensis for this compound: CO/N=C(\C(=O)N[C@@H]1C(=O)N2C(C(=O)O)=C(COC(N)=O)CS[C@H]12)c1ccco1 [Cefuroxim, reference compound]
0.5

# returns recorded MIC (system: Proteus mirabilis Hamburgensis) for CC(=O)Oc1ccc([C@@H](NC(=O)Nc2cnc(Nc3ccc(S(N)(=O)=O)cc3)nc2O)C(=O)N[C@@H]2C(=O)N3[C@@H]2SC(C)(C)[C@@H]3C(=O)O)cc1
0.12

---

# System: E. coli ATCC 11 775
# assay.text: In vivo activity, experimental intraperitoneal E. coli infection in mice
# Design: species or system Mäuse
# measurement.conditions: Escherichia coli, ATCC11, sc, 168 h; female NMRI mice, i.p. E. coli infection, s.c. application once 1 h after infection, 7 days observation; dose at which 50 % of animals survive
# Protocol: Eine Reihe von erfindungsgemäßen Verbindungen wurde in vivo bei experimentellen Infektionen an Mäusen untersucht. Man verwendete als pathogene Bakterien E. coli ATCC 11 775. Es wurde eine intraperitoneale Infektion mit 0,2 ml einer Bakteriensuspension (mit 5 % Mucin) gesetzt. Dies entspricht etwa 1,4 x 10^6 Keime E. coli/Maus. […]
measured.quantity: ED50 (mg/kg)
Write the number in mg/kg without appending the unit.

Find ED50 (E. coli ATCC 11 775) for the entry CCOC(=O)Oc1ccc([C@@H](NC(=O)Nc2cnc(Nc3ccc(S(N)(=O)=O)cc3)nc2O)C(=O)N[C@@H]2C(=O)N3[C@@H]2SC(C)(C)[C@@H]3C(=O)O)cc1
5.5

Provide value of ED50 for this record tested with E. coli ATCC 11 775: CC(=O)Oc1ccc([C@@H](NC(=O)Nc2cnc(Nc3ccc(S(N)(=O)=O)cc3)nc2O)C(=O)N[C@@H]2C(=O)N3C(C(=O)O)=C(CSc4nnnn4C)CS[C@H]23)cc1
3

Request - read-out ED50 | tested on E. coli ATCC 11 775 | compound CCOC(=O)Oc1ccc([C@@H](NC(=O)Nc2cnc(Nc3ccc(S(N)(=O)=O)cc3)nc2O)C(=O)N[C@@H]2C(=O)N3C(C(=O)O)=C(CSc4nnnn4C)CS[C@H]23)cc1
0.6

Checklist item: ED50 tested on E. coli ATCC 11 775, entry CC(=O)Oc1ccc([C@@H](NC(=O)Nc2cnc(Nc3ccc(S(N)(=O)=O)cc3)nc2O)C(=O)N[C@@H]2C(=O)N3[C@@H]2SC(C)(C)[C@@H]3C(=O)O)cc1 , value?
4.5
